- System: UACC-62 melanoma
- Measurement protocol: NCI-60 one-dose screen, 48 h
- Run parameters: 10 µM
This is part of a sample that, as a whole, favours compounds with a hit. Of some 83,000 tested, about 20% had one in any assay. Activity calls are given as the source filed them. The calls were made as follows: active = growth percent below 10; inactive = the rest.
Respond only with the outcome that fits, drawn from active, inactive

structure_smiles_string=O=C(CSc1nnc(-c2c[nH]c3ccccc23)n1-c1ccccc1)c1ccccc1 test_system="UACC-62 melanoma" discrete_label=inactive
structure_smiles_string=CCCSc1nc(NC2CC2)c(C#N)c(-c2ccc(OC)cc2)n1 test_system="UACC-62 melanoma" discrete_label=inactive
structure_smiles_string=OCCCNc1oc(-c2ccccc2)nc1[P+](c1ccccc1)(c1ccccc1)c1ccccc1 test_system="UACC-62 melanoma" discrete_label=active

Challenge: So what was the verdict on COc1cccc(-c2ccnc(/N=C(\N)Nc3ccc(S(=O)(=O)Nc4nc(C)cc(C)n4)cc3)n2)c1 in this test?
Response given: inactive

Challenge: Next molecule: C/C(=N\N=C\c1ccc(N(C)C)cc1)c1ccc2c(c1)Nc1ccccc1S2
Response given: inactive

Challenge: Next molecule: COc1cccc2nc(Nc3ccc(F)c(NC(=O)c4ccc(CN5CCN(C)CC5)c(C(F)(F)F)c4)c3)ccc12
Response given: active

Challenge: Next molecule: CCCCCCCCCCCCCCCCCCCC(=O)NCCc1c[nH]c2ccc(O)cc12
Response given: inactive

Challenge: Next molecule: CCN1CCN(c2ccc(NC(=O)Nc3ccc4c(c3F)CCN4c3ccnc(C(=O)NC)c3)cc2C(F)(F)F)CC1
Response given: inactive

Challenge: Next molecule: Cc1cc(C)nc(/N=C(\N)Nc2ccc(S(=O)(=O)Nc3nc(C)cc(C)n3)cc2)n1
Response given: inactive

Challenge: Next molecule: O=C(N/N=C/c1ccc(B(O)O)o1)c1[nH]c2ccc(Br)cc2c1-c1ccccc1
Response given: inactive

Challenge: Next molecule: COc1cnc2c(c1)C(=O)c1c-2n(CCCNC(C)C)c(=O)c2cc(OC)c(OC)cc12
Response given: inactive

Challenge: Next molecule: O=S(=O)(c1ccc(Cl)cc1)c1nc(-c2ccccc2)oc1S(=O)(=O)c1ccc(Cl)cc1
Response given: inactive

Challenge: Next molecule: CC(C)(C)c1ccc(NCc2cn(-c3ccc(C(=O)O)cc3)nc2-c2ccc(C#N)cc2)cc1
Response given: active

Challenge: Next molecule: O=C(CSc1nnc(-c2c[nH]c3ccccc23)n1-c1ccccc1)Nc1ccc(C(=O)/C=C/c2ccc(Br)cc2)cc1
Response given: inactive

Challenge: Next molecule: Cc1ccc(NCC(=O)Nn2c(COc3ccccc3)nc3ccccc3c2=O)cc1
Response given: inactive

Challenge: Next molecule: O=C(CNc1nc(-c2ccccc2)cs1)Nc1ccccc1
Response given: active

Challenge: Next molecule: O=C(CSc1nnc(-c2c[nH]c3ccccc23)n1-c1ccccc1)c1ccc(Br)cc1
Response given: inactive

Challenge: Next molecule: CCOC(=O)c1sc(N/N=C(\C)c2ccc3c(c2)Nc2ccccc2S3)nc1C
Response given: inactive

---

- Tested on: PC-3 prostate
- Measurement protocol: NCI-60 one-dose screen, 48 h
- Run parameters: 10 µM
About 83,000 compounds went through this panel and 20% of them were active in at least one assay; those are over-represented in the sample as a whole. The source made the active and inactive calls. The calls were made as follows: active = growth percent below 10; inactive = the rest.
Respond only with the outcome that fits, drawn from active, inactive

structure_smiles_string=O=C1Nc2ccc(F)cc2/C1=C/c1cccc(OCc2ccccn2)c1 discrete_label=inactive
structure_smiles_string=COc1ccc(-c2nc(-c3ccccc3)c(-c3ccccc3)n2-c2ccc(S(=O)(=O)Nc3ncccn3)cc2)cc1OC discrete_label=inactive
structure_smiles_string=Cc1ccc(C(=O)NCCCNc2nc(Nc3ccc(N4CCN(C)CC4)cc3)nc3ccsc23)cc1 discrete_label=inactive

Here is the next item to consider.
Challenge: So what was the verdict on CN1CCN(Cc2ccc(NC(=O)c3cncc(C#Cc4cnc5ccc(N[C@@H]6CCOC6)nn45)c3)cc2C(F)(F)F)CC1 in this test?
Response given: active

Data provenance is PubChem BioAssay (NCI).
